The reported numbers originate from PubChem BioAssay AID1159580.

# ASSAY REMARKS: chemical genetic growth profiling, strain panel (AID 1159580);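 also: tested at 20 µM; growth read once vehicle control cultures reached saturation at 30 °C; 1 = growth at the plate median or of vehicle wells; lower values mean less growth of the strain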
# REPORTED CONDITIONS: S. cerevisiae deletion strains, growth OD, locus YGL248W, strain PDE1, stronger effect = lower value
Out of some 5,500 compounds screened, about 2,000 (36%) were called active. Another 18% or so got no clear call; they are omitted. This is one part of the list.
Consider the following molecules and their measured normalized growth readings.
// return a plain number; no unit text

MOLECULE | RECORDED NUMBER
CCN(CC)CCOC(=O)C(c1ccccc1)C1CCCCC1 (stereo unspecified) | 1.01

Enquiry: Which normalized growth is reported for this molecule? NC(=O)NC(=O)Cc1ccccc1
Return: 1

Enquiry: Which normalized growth is reported for this molecule? O=P1(N(CCCl)CCCl)NCCCO1 (stereo unspecified)
Return: 1.01

Enquiry: Which normalized growth is reported for this molecule? NCC(N)C(=O)c1ccccc1 (stereo unspecified)
Return: 1.02

Enquiry: Which normalized growth is reported for this molecule? OC[C@H]1O[C@@H](O[C@@H]2[C@@H](CO)O[C@](O)(CO)[C@H]2O)[C@H](O)[C@@H](O)[C@H]1O
Return: 0.983

Enquiry: Which normalized growth is reported for this molecule? CCN(CC)CCOC(=O)C1(C2CCCCC2)CCCCC1
Return: 0.991
